Target: TMEM16A (transmembrane protein 16A) (Homo sapiens, UniProt Q5XXA6)
Sequence (Q5XXA6 1-986): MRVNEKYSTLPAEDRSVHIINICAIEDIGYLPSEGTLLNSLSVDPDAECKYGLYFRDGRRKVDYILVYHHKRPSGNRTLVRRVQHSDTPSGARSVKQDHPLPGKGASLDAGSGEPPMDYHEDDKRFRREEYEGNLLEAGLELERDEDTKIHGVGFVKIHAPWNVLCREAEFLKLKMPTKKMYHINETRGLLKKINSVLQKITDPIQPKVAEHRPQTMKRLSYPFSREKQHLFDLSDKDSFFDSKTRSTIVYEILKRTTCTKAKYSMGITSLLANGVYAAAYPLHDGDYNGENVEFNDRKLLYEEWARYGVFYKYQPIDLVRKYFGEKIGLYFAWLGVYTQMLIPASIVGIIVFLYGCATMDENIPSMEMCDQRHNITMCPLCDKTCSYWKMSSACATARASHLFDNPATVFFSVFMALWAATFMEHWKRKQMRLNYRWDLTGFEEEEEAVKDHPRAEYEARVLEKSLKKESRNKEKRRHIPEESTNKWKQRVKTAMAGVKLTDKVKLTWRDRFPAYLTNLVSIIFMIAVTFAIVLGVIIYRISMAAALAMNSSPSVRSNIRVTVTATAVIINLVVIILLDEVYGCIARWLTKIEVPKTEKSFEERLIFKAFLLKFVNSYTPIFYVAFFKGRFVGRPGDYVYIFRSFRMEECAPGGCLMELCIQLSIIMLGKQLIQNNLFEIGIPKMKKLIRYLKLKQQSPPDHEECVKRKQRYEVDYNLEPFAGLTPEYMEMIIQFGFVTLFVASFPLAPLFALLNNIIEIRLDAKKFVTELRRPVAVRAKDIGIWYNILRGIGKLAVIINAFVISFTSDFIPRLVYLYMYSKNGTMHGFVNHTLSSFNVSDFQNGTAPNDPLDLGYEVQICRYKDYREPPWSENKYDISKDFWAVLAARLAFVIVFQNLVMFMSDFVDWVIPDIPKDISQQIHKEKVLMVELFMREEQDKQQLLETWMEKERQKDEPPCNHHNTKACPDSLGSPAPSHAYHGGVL
Experiment: YFP iodide-influx fluorescence quenching in TMEM16A-expressing FRT cells; Eact-stimulated short-circuit current
pIC50: −log10 of the molar value.
OUTCOME MEASURE: pIC50

Query: Value wanted: pIC50 (TMEM16A (transmembrane protein 16A) (Homo sapiens, UniProt Q5XXA6)) of entry CC1=CC(=O)c2c(O)cccc2C1=O
Response: ~4.90
